# tested_system: C3a anaphylatoxin chemotactic receptor (Homo sapiens, UniProt Q16581)
# assay_details: Agonist activity at C3aR in HMDM assessed as induction of Ca2+ release
test_readout: EC50 (nM)
// return numeric value only (unit: nM, not printed)

INPUT: For the compound N=C(N)NCCC[C@H](Nc1nccc2[nH]c(C(c3ccccc3)c3ccccc3)nc12)C(=O)O , give its reported EC50.
OUTPUT: 15

###

# tested_system: UniProt P00736
# Sequence (P00736 whole entry): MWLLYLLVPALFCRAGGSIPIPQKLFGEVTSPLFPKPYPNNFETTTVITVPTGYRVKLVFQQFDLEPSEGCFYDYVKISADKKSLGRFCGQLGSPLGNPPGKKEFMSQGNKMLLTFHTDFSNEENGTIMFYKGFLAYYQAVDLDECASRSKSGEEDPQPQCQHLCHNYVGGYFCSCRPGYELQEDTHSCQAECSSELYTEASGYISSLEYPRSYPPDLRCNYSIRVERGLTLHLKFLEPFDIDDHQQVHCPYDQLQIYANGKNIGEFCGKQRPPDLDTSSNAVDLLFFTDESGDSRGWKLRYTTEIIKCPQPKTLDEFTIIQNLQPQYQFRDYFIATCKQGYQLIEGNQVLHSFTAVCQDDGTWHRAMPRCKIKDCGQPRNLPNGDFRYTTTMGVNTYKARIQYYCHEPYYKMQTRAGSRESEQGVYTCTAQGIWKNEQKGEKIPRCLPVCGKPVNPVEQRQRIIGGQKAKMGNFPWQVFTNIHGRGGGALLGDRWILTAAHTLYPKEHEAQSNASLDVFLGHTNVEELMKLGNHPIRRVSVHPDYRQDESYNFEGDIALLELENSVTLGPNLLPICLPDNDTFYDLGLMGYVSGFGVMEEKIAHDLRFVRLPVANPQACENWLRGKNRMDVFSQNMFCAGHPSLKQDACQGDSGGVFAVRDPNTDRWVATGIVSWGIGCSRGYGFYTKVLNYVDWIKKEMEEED
# assay_details: Inhibition of human serum C1r using AAME as substrate after 30 mins
test_readout: IC50 (nM)
// return numeric value only (unit: nM, not printed)

INPUT: For the compound N=C(N)c1ccc2cc(OC(=O)c3ccc(N=C(N)N)cc3)ccc2c1 , give its reported IC50.
OUTPUT: 800

###

# tested_system: Integrin alpha-M/beta-2 (Homo sapiens, UniProt P05107+P11215)
# assay_details: Inhibition of C3bi-AP binding to CR3 derived from human PMN
# Format: protein-complex assay
test_readout: IC50 (nM)
// return numeric value only (unit: nM, not printed)

sample_smiles	test_readout	measure_unit	observed_value
CCN1/C(=C/C=C/c2sc3ccccc3[n+]2CC)Sc2ccccc21	IC50	nM	330

Below: the item to evaluate.
INPUT: For the compound CC[n+]1c(/C=C/C=C/N2CCCc3ccccc32)sc2ccc3ccccc3c21 , give its reported IC50.
OUTPUT: 140

###

# tested_system: Complement C1s subcomponent (Homo sapiens)
# assay_details: Inhibition of human serum C1s using AGLME as substrate after 30 mins
test_readout: pIC50
In simple prose, pIC50 is minus the logarithm base ten of a concentration in moles per litre.

INPUT: Fill in pIC50 for N=C(N)c1ccc2cc(OC(=O)c3ccc(N=C(N)N)cc3)ccc2c1 tested with Complement C1s subcomponent (Homo sapiens).
OUTPUT: 7.54

###

# assay_details: Inhibition of rat serum alternative complement system-mediated lysis of guinea pig erythrocytes
test_readout: IC50 (nM)
// return numeric value only (unit: nM, not printed)

INPUT: For the compound N=C(N)c1cc2ccc(OC(=O)c3cccs3)cc2s1 , give its reported IC50.
OUTPUT: 330
